read-out: Pselectin, SELP (gene 6403); assay: BSK_4H_Pselectin: BioMAP Diversity Plus: 4H Assay for Pselectin Biomarker Activity (AID 2283026); settings: primary human endothelial cells (HUVEC); actives raise or lower the signal
Calls of active or inactive are those of the source. The calls were made as follows: active = hit-call score of the fitted dose curve at least 0.9, where 1 is the maximum; inactive = score below 0.9.
Measurement Label: AC50

>>> test_result("Cn1cnc([N+](=O)[O-])c1Sc1ncnc2nc[nH]c12")
"inactive"
>>> test_result("O=C(O)CC(O)C(=O)O (stereo unspecified)")
"inactive"
>>> test_result("O=C(O)CCN(C1(C(=O)NO)CCCC1)S(=O)(=O)c1ccc(Oc2ccc(F)cc2)cc1")
"inactive"
>>> test_result("CCCCC(CC)COC(=O)c1ccc(C(=O)OCC(CC)CCCC)cc1 (stereo unspecified)")
"inactive"
>>> test_result("CC(C)CCCCCCOC(=O)c1ccc(C(=O)OCCCCCCC(C)C)c(C(=O)OCCCCCCC(C)C)c1")
"inactive"
>>> test_result("CCOCCO")
"inactive"
>>> test_result("CC(C)CCCCCCCOC(=O)CCCCC(=O)OCCCCCCCC(C)C")
"inactive"
>>> test_result("CCc1cc(SCc2sc(-c3ccc(C(F)(F)F)cc3)nc2CN2CCN(c3ccc(OC)cc3)CC2)ccc1OCC(=O)O")
"11.3 µM (active)"
>>> test_result("C[C@](N)(Cc1ccc(O)c(O)c1)C(=O)O")
"inactive"
>>> test_result("CC(O)CN(CCN(CC(C)O)CC(C)O)CC(C)O (stereo unspecified)")
"inactive"
>>> test_result("CNCc1ccc(NC(=O)c2c[nH]c3c2C(=O)CCC3)cc1")
"inactive"
